Experiment: chemical genetic growth profiling, strain panel (AID 1159580);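 also: tested at 20 µM; growth read once vehicle control cultures reached saturation at 30 °C; 1 = growth at the plate median or of vehicle wells; lower values mean less growth of the strain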
Settings: S. cerevisiae deletion strains, growth OD, locus YLR058C, strain SHM2, stronger effect = lower value
About 2,000 (36%) of roughly 5,500 compounds were called active. Inconclusive results (about 18%) are left out. Some of the results follow.
Measured normalized growth of individual entries

[
  {
    "MOLECULE": "CC(CN1c2ccccc2Sc2cccnc21)N(C)C (centres undefined)",
    "normalized growth": 1.01
  },
  {
    "MOLECULE": "COc1cc2c(cc1/C=C/C(=O)c1cc(OC)c(OC)cc1OC)OCO2",
    "normalized growth": 0.998
  },
  {
    "MOLECULE": "CC(CN(C)C)CN1c2ccccc2CCc2ccccc21 (centres undefined)",
    "normalized growth": 1.01
  },
  {
    "MOLECULE": "CC(CCC(=O)O)[C@H]1CCC2C3CC[C@@H]4C[C@H](O)CC[C@]4(C)C3CC[C@@]21C (some centres undefined)",
    "normalized growth": 0.893
  },
  {
    "MOLECULE": "CC(CN(C)C)CN1c2ccccc2Sc2ccccc21 (centres undefined)",
    "normalized growth": 0.985
  },
  {
    "MOLECULE": "CCCCCC1C(=O)CCC1CC(=O)O (centres undefined)",
    "normalized growth": 1.01
  },
  {
    "MOLECULE": "CC(CCC(=O)O)[C@H]1CCC2C3C[C@H](O)[C@@H]4C[C@H](O)CC[C@]4(C)C3CC[C@@]21C (some centres undefined)",
    "normalized growth": 1.02
  },
  {
    "MOLECULE": "COc1cc(OC)c(OC)cc1C=O",
    "normalized growth": 1.03
  },
  {
    "MOLECULE": "CC(CN1c2ccccc2Sc2ccccc21)N(C)C (centres undefined)",
    "normalized growth": 0.957
  },
  {
    "MOLECULE": "Cc1cccc(Nc2ccncc2S(=O)(=O)NC(=O)NC(C)C)c1",
    "normalized growth": 1.01
  },
  {
    "MOLECULE": "COC(=O)c1c(C)cc(OC(=O)c2c(C)cc(O)c(C=O)c2O)c(C)c1O",
    "normalized growth": 0.957
  },
  {
    "MOLECULE": "COc1cc(C)c(C(=O)Oc2cc(C)c(C(=O)O)c(O)c2C)c(OC)c1C",
    "normalized growth": 1.01
  },
  {
    "MOLECULE": "COc1c2ccccc2nc2occc12",
    "normalized growth": 0.957
  },
  {
    "MOLECULE": "CC(CCC(=O)O)[C@H]1CCC2C3CC[C@@H]4CCCC[C@]4(C)C3CC[C@@]21C (some centres undefined)",
    "normalized growth": 0.999
  },
  {
    "MOLECULE": "CN1CCN(C2=Nc3ccccc3Oc3ccc(Cl)cc32)CC1",
    "normalized growth": 0.986
  },
  {
    "MOLECULE": "Clc1ccc2c(c1)C(N1CCNCC1)=Nc1ccccc1O2",
    "normalized growth": 0.979
  },
  {
    "MOLECULE": "CCCCCC1C(=O)CCC1CC(=O)OC (centres undefined)",
    "normalized growth": 1
  },
  {
    "MOLECULE": "CCN(CC)C(C)CN1c2ccccc2Sc2ccccc21 (centres undefined)",
    "normalized growth": 0.963
  },
  {
    "MOLECULE": "COc1cc(S(C)=O)ccc1-c1nc2ncccc2[nH]1 (centres undefined)",
    "normalized growth": 0.993
  },
  {
    "MOLECULE": "CSc1ccc2c(c1)N(CCC1CCCCN1C)c1ccccc1S2 (centres undefined)",
    "normalized growth": 0.0859
  },
  {
    "MOLECULE": "S=P(N1CC1)(N1CC1)N1CC1",
    "normalized growth": 1.01
  },
  {
    "MOLECULE": "CNC(=O)Oc1ccc2c(c1)[C@]1(C)CCN(C)[C@@H]1N2C",
    "normalized growth": 1.01
  },
  {
    "MOLECULE": "COc1c2ccoc2nc2c(OC)c(OCC(O)C(C)(C)O)ccc12 (centres undefined)",
    "normalized growth": 0.991
  },
  {
    "MOLECULE": "CC(CCC(=O)O)[C@H]1CCC2C3C(C[C@H](O)[C@@]21C)[C@@]1(C)CC[C@@H](O)C[C@H]1C[C@H]3O (some centres undefined)",
    "normalized growth": 1.02
  }
]
